- MEASUREMENT_TARGET: HA of A/California/04/2009 (H1N1) virus (Influenza A virus (H1N1))
- ASSAY_COMMENT: cell-based or functional assay
binders and their reported HAI activity

# example entries with known answers
*Q* Quick one: HAI activity of mAb 8F8 (antibody, V domains shown) VH: EVQLLESGGGVVQPGRSLRLSCAASGFMFSSYVMHWVRQPPGKGLEWVAVIWYDGSKTYFADSMRGRLTVSRDNSKNALYLQMNRLRAEDTAVYYCARQQDSGYSGPEVSYYSHYGMDVWGQGTTVIVS VL: QSVLTQSPSASGTPGRAITISCSGSSSNIGSNPVNWYQQLPGAAPKLLIYADEHRPSGVPDRFSGPKSGTSASLAISGLQSEDEADYYCAAWDDSLSGPAVVFGGGTKLTVLG ?
*A* > 20 µg/mL

*Q* Quick one: HAI activity of mAb 2G1 (antibody, V domains shown) VH: EVQLVESGAEVKKPGSSVKVSCKASGGTFITHVFTWVRQAPGQGLEWVGGFIAIFGTSNYAQKFQGRVTITADESTSTAYMELTSLTSEDTAVYYCARGISGSYGWFDPWGQGTLVTVS VL: DIQLTQSPSSLSASVGDRVTITCQASQDIRKYLNWYQQKPGKAPNLLIYDASNVKTGVPSRFRGSGSGTDFTFTISSLQPEDIATYYCQQYDNLPITFGQGTRLEIKR ?
*A* > 50 µg/mL

*Q* Quick one: HAI activity of mAb 11J19 (antibody, V domains shown) VH: EVQLQESGPGLVKPSETLSLSCTVSGGSITRSSYYWGWIRQPPGKGLEWIGNIYYSGTTYYNPSLKSRVTISVDTSKNQFSLKLSSVTAADTAVYYCARLYGSGLDYWGQGTLVTVS VL: DIQLTQSPSFLSASVGDRVTITCRASQGSSRYVAWYQQKPGKAPKLLILAASTLHTGVPSRFSGSGSGTEFTLTISSLQPEDFATYSCQQLNGFLLTFGGGTKVEIKR ?
*A* > 20 µg/mL

***
*Q* Quick one: HAI activity of mAb 7A13 (antibody, V domains shown) VH: QVQLQESAPGLVKPSGTLSLTCAVSGASLSSSDWWTWVRQPPGKGLEWIGEIHHGGSTNSNPSLQSRVTISIDKSKKQFSLKLTSVTVADTAVYYCARAPGADAGPYSENIHHWGQGTLVTVS VL: QLVLTQSPSASASLGASVKLTCTLSSRHSDYAIGWHQQQPGKGPRYLMKLNPDGSHTKGDGIPDRFSGSSSGAERYLTISNLLSEDEADYYCQTWGTGIQVFGGGTRLTVIS ?
*A* > 20 µg/mL

All figures here come from patent US20130289246A1.
